# EXPERIMENTAL_SYSTEM: Saccharomyces cerevisiae α-glucosidase (Saccharomyces cerevisiae)
# Sequence (P53341 whole entry): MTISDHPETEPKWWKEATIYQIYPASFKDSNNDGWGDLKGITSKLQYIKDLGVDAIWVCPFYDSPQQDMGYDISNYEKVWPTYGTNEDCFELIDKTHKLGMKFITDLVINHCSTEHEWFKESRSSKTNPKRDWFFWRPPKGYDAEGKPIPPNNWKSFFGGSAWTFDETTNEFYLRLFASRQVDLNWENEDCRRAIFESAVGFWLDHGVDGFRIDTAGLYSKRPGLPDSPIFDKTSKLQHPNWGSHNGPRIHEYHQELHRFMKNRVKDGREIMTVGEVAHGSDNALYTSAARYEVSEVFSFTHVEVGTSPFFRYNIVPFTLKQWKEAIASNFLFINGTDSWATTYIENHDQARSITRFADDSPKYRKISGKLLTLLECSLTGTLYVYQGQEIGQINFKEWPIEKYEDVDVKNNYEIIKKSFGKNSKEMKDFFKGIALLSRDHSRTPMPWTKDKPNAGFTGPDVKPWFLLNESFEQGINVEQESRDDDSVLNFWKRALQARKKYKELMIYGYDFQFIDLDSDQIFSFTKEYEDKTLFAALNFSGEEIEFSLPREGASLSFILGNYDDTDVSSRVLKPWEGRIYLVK
pIC50: −log10 of the molar value.
Each entry gets no (0) if its pIC50 stays under 4, and yes (1) if its pIC50 is 4 or above.

Worked set:
Decide: is the reported value of pIC50 for COc1ccc(-c2nc3ccccc3c3nc(-c4ccccc4)c(-c4ccccc4)n23)c(OC)c1 [11k] equal to or greater than 4? yes (1)

Ok, now Clc1ccccc1-c1nc2ccccc2c2nc(-c3ccccc3)c(-c3ccccc3)n12 [11d] no (0)

One more compound: COc1cccc(-c2nc3ccccc3c3nc(-c4ccccc4)c(-c4ccccc4)n23)c1 [11h] yes (1)

// same read-out, input: c1ccc(-c2nc3c4ccccc4nc(-c4ccccc4)n3c2-c2ccccc2)cc1 [11a, 2,3,5-triphenylimidazo[1,2-c]quinazoline] no (0)

Would you mind doing `Clc1ccc(-c2nc3ccccc3c3nc4ccccc4n23)cc1` as well? no (0)

Then what about the compound COc1ccc(OC)c(-c2nc3ccccc3c3nc(-c4ccccc4)c(-c4ccccc4)n23)c1 [11l] ? yes (1)

Now the same for COc1cc(-c2nc3ccccc3c3nc(-c4ccccc4)c(-c4ccccc4)n23)cc(OC)c1OC [11n] yes (1)

What do we get for Clc1ccc(-c2nc3ccccc3c3nc(-c4ccccc4)c(-c4ccccc4)n23)cc1 [11b] ? no (0)

Param item: COc1cc(-c2nc3ccccc3c3nc(-c4ccccc4)c(-c4ccccc4)n23)cc(Br)c1OC [11o] no (0)

Further, for COc1ccccc1-c1nc2ccccc2c2nc(-c3ccccc3)c(-c3ccccc3)n12 [11i] ? yes (1)

More entries:
Decide: pIC50 of `c1ccc(-c2nc3ccccc3c3nc4ccccc4n23)cc1` >= 4? no (0)

Query Clc1cccc(-c2nc3ccccc3c3nc(-c4ccccc4)c(-c4ccccc4)n23)c1 [11c] next no (0)

Next compound: CN(C)c1ccc(-c2nc3ccccc3c3nc(-c4ccccc4)c(-c4ccccc4)n23)cc1 [11f] no (0)

Please give the result for COc1ccc(-c2nc3ccccc3c3nc(-c4ccccc4)c(-c4ccccc4)n23)cc1OC [11m] too. yes (1)
